We begin with a simple list: items and their reported IC50.
Target: Thymidine phosphorylase (Escherichia coli O157:H7, UniProt Q8XB35)
Sequence (Q8XB35 whole entry): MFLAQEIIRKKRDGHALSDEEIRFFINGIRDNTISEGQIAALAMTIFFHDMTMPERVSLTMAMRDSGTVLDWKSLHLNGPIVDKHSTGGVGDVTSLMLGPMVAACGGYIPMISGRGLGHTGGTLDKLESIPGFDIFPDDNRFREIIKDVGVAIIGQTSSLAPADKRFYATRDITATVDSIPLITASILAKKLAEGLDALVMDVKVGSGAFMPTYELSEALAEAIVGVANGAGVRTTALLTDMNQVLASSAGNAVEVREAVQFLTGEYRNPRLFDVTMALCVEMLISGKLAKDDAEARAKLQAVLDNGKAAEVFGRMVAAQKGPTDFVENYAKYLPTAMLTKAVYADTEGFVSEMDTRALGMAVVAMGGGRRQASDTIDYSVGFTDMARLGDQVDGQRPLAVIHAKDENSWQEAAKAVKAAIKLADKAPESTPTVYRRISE
Provide only the numeric value, understood in µM.

Nc1ccccc1-c1n[nH]c(=S)o1 | 74.3
Sc1nnc(-c2cccc(Cl)c2)o1 | 258
Cc1cccc(-c2nnc(S)o2)c1 | 91.8

I am curious: what IC50 value has been reported for Oc1ccccc1-c1nnc(S)o1 ?
68.4

I am curious: what IC50 value has been reported for COc1ccc(-c2n[nH]c(=S)o2)cc1 ?
72.4

I am curious: what IC50 value has been reported for Oc1ccc(-c2nnc(S)o2)cc1 ?
38.2

I am curious: what IC50 value has been reported for S=c1[nH]nc(-c2ccc(Br)cc2)o1 ?
64

I am curious: what IC50 value has been reported for S=c1[nH]nc(-c2ccc(Cl)cc2)o1 ?
64

I am curious: what IC50 value has been reported for COc1cc(-c2n[nH]c(=S)o2)cc(OC)c1OC ?
63.4
